Tested on: ALOMY (blackgrass)
Assay: Post-Emergent Test III (Wheat and Barley)
Type: in vivo, Alopecurus myosuroides
Conditions: effective dose for growth reduction of 80 percent, probit analysis
Endpoint: GR80, ALOMY

[
  {
    "Chemical string": "Nc1c(F)c(-c2ccc(C3CC3)nc2)nc(C(=O)O)c1Cl",
    "Endpoint": "GR80, ALOMY",
    "Recorded value": ">140 g ai/ha"
  },
  {
    "Chemical string": "COC(=O)c1nc(-c2ccc(C(F)(F)F)nc2)c(Cl)c(N)c1Cl",
    "Endpoint": "GR80, ALOMY",
    "Recorded value": "58 g ai/ha"
  },
  {
    "Chemical string": "Cc1c(-c2ccc(C(F)(F)F)nc2)nc(C(=O)O)c(Cl)c1N",
    "Endpoint": "GR80, ALOMY",
    "Recorded value": ">140 g ai/ha"
  },
  {
    "Chemical string": "COC(=O)c1nc(-c2ccc(OC(F)F)nc2)c(F)c(N)c1Cl",
    "Endpoint": "GR80, ALOMY",
    "Recorded value": ">140 g ai/ha"
  },
  {
    "Chemical string": "COC(=O)c1nc(-c2ccc(C3CC3)nc2)c(F)c(N)c1Cl",
    "Endpoint": "GR80, ALOMY",
    "Recorded value": ">140 g ai/ha"
  },
  {
    "Chemical string": "COC(=O)c1nc(-c2ccc(Cl)c(F)c2OC)c(F)c(N)c1Cl",
    "Endpoint": "GR80, ALOMY",
    "Recorded value": ">140 g ai/ha"
  },
  {
    "Chemical string": "COC(=O)c1nc(-c2ccc(C(F)(F)F)nc2)c(F)c(N)c1Cl",
    "Endpoint": "GR80, ALOMY",
    "Recorded value": "80 g ai/ha"
  },
  {
    "Chemical string": "COC(=O)c1nc(-c2ccc(Cl)c(F)c2OC)cc(N)c1Cl",
    "Endpoint": "GR80, ALOMY",
    "Recorded value": ">140 g ai/ha"
  },
  {
    "Chemical string": "Nc1c(F)c(-c2ccc(OC(F)F)nc2)nc(C(=O)O)c1Cl",
    "Endpoint": "GR80, ALOMY",
    "Recorded value": ">140 g ai/ha"
  },
  {
    "Chemical string": "Nc1c(Cl)c(C(=O)O)nc(-c2ccc(C(F)(F)F)nc2)c1Cl",
    "Endpoint": "GR80, ALOMY",
    "Recorded value": "72 g ai/ha"
  }
]

====

Tested on: Key Broadleaf Weed and Crop Species
Assay: Post-Emergent Test II (Table 5)
Format: in vivo
Settings: Euphorbia heterophylla, post-emergence, 336 h, EPHHL: wild poinsettia (Euphorbia heterophylla), application rate 140 (kg ai/ha; footnote: g ai/ha), read-out: Visual Growth Reduction (%) 14 Days After Application EPHHL
This section presents compounds with their documented pest or weed control at 140 g/ha values.

[
  {
    "Chemical string": "Nc1c(F)c(-c2ccc(Cl)c(Cl)c2Cl)nc(C(=O)O)c1Cl",
    "pest or weed control at 140 g/ha": "75 to 84%"
  },
  {
    "Chemical string": "COC(=O)c1nc(-c2ccc(Cl)c(Cl)c2Cl)c(F)c(N)c1Cl",
    "pest or weed control at 140 g/ha": "75 to 84%"
  },
  {
    "Chemical string": "COC(=O)c1nc(-c2ccc(F)nc2)c(F)c(N)c1Cl",
    "pest or weed control at 140 g/ha": "85 to 94%"
  },
  {
    "Chemical string": "COc1nc(C(F)(F)F)ccc1-c1nc(C(=O)O)c(Cl)c(N)c1F",
    "pest or weed control at 140 g/ha": "0 to 29%"
  },
  {
    "Chemical string": "COC(=O)c1nc(-c2ccc(Cl)nc2F)nc(N)c1Cl",
    "pest or weed control at 140 g/ha": "0 to 29%"
  }
]
